Target: T1, Recombinant MBP-mutCALR Type 1 fusion protein (human)
T1 construct: custom made at Cepter; also called recombinant mutCALR protein
Experiment: SPR, IgG captured, 1:1 fit, Exp. 2
QUANTITY_KIND: pKd
Note: pKd values are expressed as the negative base-10 logarithm of concentration in M.

BINDER: anti-mutCALR antibody clone 143 (antibody, human IgG1, lambda, N297A, V domains shown, human IgG1 N297A variant of clone 15) VH: EVQLVQSGAEVKKPGASVKVSCKVSGYTLTELSMQWVRQAPGKGLEWMGGFDPDDAETMYAEKFQGRLTVTEDTSTDTVYMELSSLRSEDTAVYFCATSPGYDFFDYWGQGTLVTVSS VL: SYVLTQPPSVSVAPGKTARITCGGDNIGSKSVHWYQQKPGQAPVLVVYDDSDRPSGIPERFSGSNSGNTATLTISRVEAGDEADYYCQVWDSSNDLLIFGGGTKLTVLG
QUANTITY_KIND: pKd
READOUT_NUMBER: 8.88

Form field pKd, entry anti-mutCALR antibody clone 181 (antibody, human IgG1, lambda, N297A, V domains shown, human IgG1 N297A variant of clone 17) VH: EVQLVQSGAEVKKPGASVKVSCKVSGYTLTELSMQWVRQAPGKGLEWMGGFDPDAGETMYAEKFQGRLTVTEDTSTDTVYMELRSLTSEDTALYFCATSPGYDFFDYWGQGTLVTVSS VL: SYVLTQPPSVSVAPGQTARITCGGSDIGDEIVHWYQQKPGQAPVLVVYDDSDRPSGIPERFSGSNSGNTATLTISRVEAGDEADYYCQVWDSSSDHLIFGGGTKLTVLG : 8.80
